target: Tyrosine-protein kinase receptor UFO (Homo sapiens); test: Inhibition of AXL (unknown origin)
Sequence (P30530 whole entry): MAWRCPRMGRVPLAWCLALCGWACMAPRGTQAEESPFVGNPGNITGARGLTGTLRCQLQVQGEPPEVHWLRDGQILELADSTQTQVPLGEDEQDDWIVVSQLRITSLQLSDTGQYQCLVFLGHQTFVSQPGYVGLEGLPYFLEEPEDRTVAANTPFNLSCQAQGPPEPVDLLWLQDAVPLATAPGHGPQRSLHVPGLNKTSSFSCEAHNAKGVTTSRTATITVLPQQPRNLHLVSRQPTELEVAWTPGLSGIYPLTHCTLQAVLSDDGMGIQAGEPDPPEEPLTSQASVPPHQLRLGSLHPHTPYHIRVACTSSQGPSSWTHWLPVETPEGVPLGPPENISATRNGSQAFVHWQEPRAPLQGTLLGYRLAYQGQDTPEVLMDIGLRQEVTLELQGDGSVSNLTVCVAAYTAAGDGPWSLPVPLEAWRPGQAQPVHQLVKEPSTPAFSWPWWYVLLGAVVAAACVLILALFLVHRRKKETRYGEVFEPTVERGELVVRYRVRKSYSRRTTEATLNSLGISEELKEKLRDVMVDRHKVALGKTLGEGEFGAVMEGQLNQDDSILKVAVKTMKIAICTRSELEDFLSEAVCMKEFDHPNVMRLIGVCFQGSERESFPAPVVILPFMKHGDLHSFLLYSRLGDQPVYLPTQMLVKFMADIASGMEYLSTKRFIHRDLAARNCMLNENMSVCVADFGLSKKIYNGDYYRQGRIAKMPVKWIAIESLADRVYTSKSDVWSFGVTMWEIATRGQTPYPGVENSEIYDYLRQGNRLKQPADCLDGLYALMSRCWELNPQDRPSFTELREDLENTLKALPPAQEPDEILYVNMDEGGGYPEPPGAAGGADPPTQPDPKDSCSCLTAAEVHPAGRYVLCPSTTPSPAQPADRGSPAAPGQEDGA
pIC50: −log10 of the molar value.
reported_metric: pIC50

COc1cc2nccc(Oc3ccc(NC(=O)c4c5n(n(-c6ccc(F)cc6)c4=O)CCCC5)cc3F)c2cc1OC | 8.46

(a) COc1cc2nccc(Oc3ccc(NC(=O)c4c5n(n(-c6cc(F)ccc6F)c4=O)CCCC5)cc3F)c2cc1OC
(b) O=C(Nc1ccc(Oc2ccnc3c2CCN3)c(F)c1)c1c[nH]cc(-c2ccc(F)cc2)c1=O
Which item exceeds the other in pIC50, a or b ? Please identify the chosen entry by its label.
a

(a) CN1CCc2ccc(Nc3ncc(Cl)c(Nc4ccccc4S(=O)(=O)N(C)C)n3)cc2C1
(b) CCc1ccc2c(c1)c(=O)c(C(=O)Nc1ccc(Oc3ccnc4cc(OC)c(OC)cc34)c(F)c1)c(C)n2C
Hi, I'm comparing two records. Which one has the lower pIC50, a or b ? Answer by quoting the chosen item's label.
a
(a: 5.59, b: 8.40)

(1) Nn1cc(-c2n[nH]c3cc(Cl)c(NC4CCNC4)cc23)cn1 (configuration not stated)
(2) COc1cc2ncnc(Oc3ccc(NC(=O)c4c5n(n(-c6cccc(F)c6)c4=O)CCCC5)cc3F)c2cc1OC
For 1 and 2 , which recorded pIC50 is lower? Field: selected label. Fill in the label of the entry you choose.
1

* * *

molecular target: Epithelial discoidin domain-containing receptor 1 (Homo sapiens)
Sequence (Q08345 whole entry, the tested form may be a part): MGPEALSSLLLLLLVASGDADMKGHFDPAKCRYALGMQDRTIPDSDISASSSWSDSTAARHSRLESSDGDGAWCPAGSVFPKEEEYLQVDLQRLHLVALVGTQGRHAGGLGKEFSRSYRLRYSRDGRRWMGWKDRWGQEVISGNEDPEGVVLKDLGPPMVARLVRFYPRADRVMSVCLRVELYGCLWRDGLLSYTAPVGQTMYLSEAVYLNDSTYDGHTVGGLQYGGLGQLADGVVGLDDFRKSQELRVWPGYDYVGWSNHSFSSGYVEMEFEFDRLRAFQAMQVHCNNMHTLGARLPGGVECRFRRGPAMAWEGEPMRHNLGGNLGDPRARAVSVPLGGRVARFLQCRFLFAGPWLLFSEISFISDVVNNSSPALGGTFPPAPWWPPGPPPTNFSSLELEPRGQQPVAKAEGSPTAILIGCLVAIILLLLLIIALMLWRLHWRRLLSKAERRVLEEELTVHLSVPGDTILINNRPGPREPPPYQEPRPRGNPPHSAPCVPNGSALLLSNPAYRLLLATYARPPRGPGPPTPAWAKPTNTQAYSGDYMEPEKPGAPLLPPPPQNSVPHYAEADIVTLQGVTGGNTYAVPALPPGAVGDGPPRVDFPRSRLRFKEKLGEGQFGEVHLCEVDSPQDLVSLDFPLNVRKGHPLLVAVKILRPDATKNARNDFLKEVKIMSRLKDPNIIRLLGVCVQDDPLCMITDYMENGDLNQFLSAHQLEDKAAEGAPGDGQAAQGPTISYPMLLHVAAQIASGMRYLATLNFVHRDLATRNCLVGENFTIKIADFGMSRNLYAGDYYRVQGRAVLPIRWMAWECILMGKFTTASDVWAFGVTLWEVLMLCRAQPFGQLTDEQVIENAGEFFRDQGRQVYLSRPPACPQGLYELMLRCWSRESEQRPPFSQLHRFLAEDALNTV
reported_metric: IC50 (µM)
Use µM as the unit, but write only the number.

IC50 lookup needed for `CCc1ccc2c(c1)c(=O)c(C(=O)Nc1ccc(Oc3ccnc4cc(OC)c(OC)cc34)c(F)c1)c(C)n2C` , thanks.
0.0222
